testedSystem: T1, Sulfotyr fibrinogen γ peptide (not fully specified; Y8 and Y12 sulfated (SO3); C-terminal biotin)
T1 construct: also called Fibrinogen gamma peptide; human sulfotyrosinylated fibrinogen peptide
T1 peptide: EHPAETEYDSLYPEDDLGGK
protocolDescription: ELISA, 50 nM mAb
Tick true if binding normalized to PSGL-1 is 0.8 or greater. Tick false if binding normalized to PSGL-1 is less than 0.8.

Please review the following examples before continuing.
- binder: "2E12 (antibody, V domains shown, Mouse hybridoma mAb; only variable domains given) VH: QVQLQQSGAELARPGASVKLSCKASGYTFTNYGLNWVKQRTGQGLEWIGEIYPRSGNTYYNEKFKGKATLTADKSSSTAYMQLSSLTSEDSAVYFCATEGAYWGQGTLVTVSA VL: DIVMTQTPLTLSVTIGQPASISCKSSQSLLHGNGKTYLNWLLQRPGQSPKLLIYLVSKLESGIPDRFSGSGSGTDFTLEISRVEAEDLGIYYCLQSTHFPRTFGGGTKLEIK"
  classLabel: "false"
- binder: "02E01 (antibody, IgG4, V domains shown) VH: EVQLVQSGGGVVQPGRSLRLSCAASGFTFSRYGMHWVRQAPGKGLEWVSVISYDGNNKYYADSVKGRFTISRDNSKNTVYLQMNSLRADDTAVYYCARNVPVTNFGYWGQGTLVTVSS VL: QSALTQPASVSGSPGQSITISCTGTSSDVGGYNYVSWYQQHPGKAPKLMIYDVSKRPSGVSNRFSGSKSGNTASLTISGLQAEDEADYYCSSYTRPGRVFGGGTKLTVL"
  classLabel: "true"
- binder: "09C10 (antibody, V domains shown) VH: EVKLLESGGGLIQPGGSLRLSCAASGFTVSNNYVTWVRQAPGKGLELVSSIYSGGGTYYADSVKGRFTISRDNSKNTVYLQMNSLRADDTAVYYCARNVPVTNFGYWGQGTLVTVSS VL: DIVMTQSPLSLPVTLGQPASISCRSSQSLVYRDGNTYLNWFQQRPGQSPRRLIYKVSNRDSGVPDRFSGSGSGTDFTLKISRVEAEDVGVYYCMQLTHWPPGFAQGTKLEIK"
  classLabel: "true"
- binder: "10F01 (antibody, IgG4, V domains shown) VH: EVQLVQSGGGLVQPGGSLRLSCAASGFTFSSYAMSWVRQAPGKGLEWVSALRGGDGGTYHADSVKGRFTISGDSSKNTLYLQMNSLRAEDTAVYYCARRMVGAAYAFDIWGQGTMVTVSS VL: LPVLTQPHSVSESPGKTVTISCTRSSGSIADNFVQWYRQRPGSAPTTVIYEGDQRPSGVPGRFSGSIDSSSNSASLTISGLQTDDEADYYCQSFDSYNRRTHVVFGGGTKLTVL"
  classLabel: "false"

Does 09D04 (antibody, IgG4, V domains shown) VH: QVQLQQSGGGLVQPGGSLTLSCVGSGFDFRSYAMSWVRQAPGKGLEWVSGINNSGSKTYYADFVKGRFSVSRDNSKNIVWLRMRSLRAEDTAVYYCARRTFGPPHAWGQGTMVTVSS VL: DVVMTQSPLSLPVTPGEPASISCRSSQSLLHSNGYTYLEWYLHKPGQSPQLLIYLGSNRASGVPDRFSGSGSGTDFTLKISRVEAEDVGVYYCMHSLHIPFTFGPGTKVDIK have a reported binding normalized to PSGL-1 of at least 0.8?
false

Can you check 19I01 (antibody, V domains shown, From mouse immunisation; only variable domains given; also called 19101) VH: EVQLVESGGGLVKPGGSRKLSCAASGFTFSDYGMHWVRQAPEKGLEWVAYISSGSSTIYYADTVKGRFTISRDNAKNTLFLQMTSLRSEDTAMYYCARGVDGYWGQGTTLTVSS VL: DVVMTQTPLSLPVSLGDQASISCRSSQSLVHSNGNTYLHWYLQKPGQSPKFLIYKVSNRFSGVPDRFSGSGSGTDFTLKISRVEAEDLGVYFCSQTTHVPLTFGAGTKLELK next?
false

Can you check 03D07 (antibody, IgG4, V domains shown) VH: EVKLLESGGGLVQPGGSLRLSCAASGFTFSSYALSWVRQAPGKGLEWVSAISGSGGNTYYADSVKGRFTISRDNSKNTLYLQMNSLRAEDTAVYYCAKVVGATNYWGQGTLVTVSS VL: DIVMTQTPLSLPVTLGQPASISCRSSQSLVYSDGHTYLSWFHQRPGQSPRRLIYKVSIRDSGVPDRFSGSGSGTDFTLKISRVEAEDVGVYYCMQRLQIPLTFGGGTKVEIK next?
false

Can you check 06B02 (antibody, IgG4, V domains shown) VH: QVQLVESGPGLVKPSETLSLTCTVSGVSVSSYYWTWVRQSPGKGLEWIGHVHHSGISNYNPSLKSRVVMSVDTSKNYFSLKLRSVTAADTAVYYCARGGPRISPTNWGQGTLVTVSS VL: QPVLTQPPSVSKALRQTATLTCTGNSNNVGYQGATWLRQHQGHPPRLLSYRNNNRPSGISERFSASRSGNTATLTITGLQPDDEADYYCAAWDSSLSAWVFGGGTKLTVL next?
true

Can you check 03B03 (antibody, IgG4, V domains shown) VH: EVQLVQSGGGLVQPGGSLRLSCAATGFTVSRNYMTWVREAPGKGLEWVAGIYKSGTTSYTESVKGRFTISRDNSKNTLYLEMSRLRAEDTAVYYCAKSTSTWGQGTQVTVSS VL: DIVMTQSPLSLPVTLGQPASISCRASQSPGYSDGNTYLNWFQQRPGQSPRRLIYKVSNRDPGVPDRFSGSGSGTDFTLKISRVEAEDVGVYYCMQATHWPSFGQGTRLEIK next?
true

Can you check 16L15 (antibody, V domains shown, From mouse immunisation; only variable domains given) VH: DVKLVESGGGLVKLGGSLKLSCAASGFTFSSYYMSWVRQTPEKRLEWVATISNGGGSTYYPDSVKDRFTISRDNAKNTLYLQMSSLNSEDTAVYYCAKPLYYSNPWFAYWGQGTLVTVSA VL: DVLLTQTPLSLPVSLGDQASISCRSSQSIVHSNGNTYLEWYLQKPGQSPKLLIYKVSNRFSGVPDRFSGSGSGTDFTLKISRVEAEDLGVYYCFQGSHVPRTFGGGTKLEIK next?
false
